test: Cytotoxicity against human HepG2(2.2.15) cells after 24 hrs by neutral red dye staining; format: functional; settings: HepG2 2.2.15, 24 h
Below, each of the compounds is paired with its reported CC50 value.
measurement.label: CC50 (µM)

mol	measurement.label	reported.result
COc1cc2nc3c(cc2c(CN(C)C)c1O)CSc1ccc(C)cc1-3	CC50	67.3
COc1cc2nc3c(cc2c(CN2CCCC2)c1O)CSc1cc(F)ccc1-3	CC50	566
CCN(CC)Cc1c(O)c(OC)cc2nc3c(cc12)CSc1cc(F)ccc1-3	CC50	20.7
COc1cc2nc3c(cc2c(CN2CCOCC2)c1O)CSc1cc(C)ccc1-3	CC50	262
COc1cc2nc3c(cc2c(CN2CCN(C)CC2)c1O)CSc1ccccc1-3	CC50	25.2

###

experiment: Cytotoxicity against human HepG2(2.2.15) cells after 24 hrs by neutral red dye staining; assay type: functional; details: HepG2 2.2.15, 24 h

mol	CC50 (µM)
COc1cc2nc3c(cc2c(CN(C)C)c1O)CSc1ccccc1-3	36.5
COc1cc2nc3c(cc2c(CN2CCN(C)CC2)c1O)CSc1cc(F)ccc1-3	13.5
CCN(CC)Cc1c(O)c(OC)cc2nc3c(cc12)CSc1ccccc1-3	39
COc1cc2nc3c(cc2c(CN2CCOCC2)c1O)CSc1ccccc1-3	42.1

###

assay: Cytotoxicity against human HepG2(2.2.15) cells after 24 hrs by neutral red dye staining; assay type: functional; details: HepG2 2.2.15, 24 h

molecule	CC50 / µM
COc1cc2nc3c(cc2c(CN2CCCCC2)c1O)CSc1c(C)cc(C)cc1-3	21.9
COc1cc2nc3c(cc2c(CN2CCN(C)CC2)c1O)CSc1ccc(C)cc1-3	527
CCN(CC)Cc1c(O)c(OC)cc2nc3c(cc12)CSc1ccc(C)cc1-3	12
COc1cc2nc3c(cc2c(CN2CCCC2)c1O)CSc1ccc(F)cc1-3	435
COc1cc2nc3c(cc2c(CN2CCOCC2)c1O)CSc1ccc(C)cc1-3	181
COc1cc2nc3c(cc2c(CN2CCOCC2)c1O)CSc1cc(F)ccc1-3	28.8
COc1cc2nc3c(cc2c(CN2CCOCC2)c1O)CSc1c(C)cc(C)cc1-3	50.6
COc1cc2nc3c(cc2c(CN2CCCC2)c1O)CSc1ccc(C)cc1-3	146
Nc1ccn([C@@H]2CS[C@H](CO)O2)c(=O)n1 [LAMIVUDINE]	2180
COc1cc2nc3c(cc2c(CN(C)C)c1O)CSc1c(C)cc(C)cc1-3	32.4
